assay: Spectral properties of selected fluorinated fluoresceins and rhodols; type: physicochemical; settings: fluorescence quantum yield
Returns the class for an entry based on its Quantum Yield. Class ranges: low = under 0.8, mid = from 0.8 up to 0.9, high = 0.9 and over

Exercise: Please report the category associated with "O=C(O)CSc1c(F)c(F)c2c(c1F)C1(OC2=O)c2cc(F)c(O)cc2Oc2cc(O)c(F)cc21" , nothing else.
Solution: mid

Exercise: Band of "Nc1c(F)c(F)c2c(c1F)C1(OC2=O)c2ccc(O)cc2Oc2cc(O)ccc21" ?
Solution: low

Exercise: For this compound, which bin applies? "O=C1OC2(c3ccc(O)cc3Oc3cc(O)ccc32)c2c(F)c(F)c(F)c(F)c21"
Solution: mid

Exercise: Using the reported Quantum Yield, which band applies to "O=c1c(F)c2oc3c(F)c(O)c(F)c(F)c3c(-c3c(F)c(F)c(F)c(F)c3F)c-2c(F)c1F" ?
Solution: low

Exercise: Which class is correct for the following compound? "O=C1OC2(c3cc(F)c(O)cc3Oc3cc(O)c(F)cc32)c2ccccc21"
Solution: high

Pending compound:
Exercise: Which category fits this record: "O=C1OC2(c3cc(F)c(O)cc3Oc3cc(O)c(F)cc32)c2c(F)c(F)c(F)c(F)c21"
Solution: high
